Recorded melting point values for a group of molecules are listed next.

Answered cases to consult:
* Cc1cc(F)ccc1-c1nc(OCCO)nc2c1CNC(=O)N2c1c(F)cccc1F [Example 163] | 172 to 175 °C
* COc1nc(-c2ccc(F)cc2C)c2c(n1)N(c1c(F)cccc1F)C(=O)NC2 [Example 161] | 210 to 211 °C
* COc1nc(-c2ccccc2)c2c(n1)N(c1c(F)cccc1F)C(=O)NC2 [Example 166] | 221 to 224 °C

# input for lookup
Read off the recorded melting point for COc1nc(-c2ccccc2)c2c(n1)N(c1ccccc1)C(=O)NC2 [Example 167] 220 to 222 °C
